Test system: CN0375-F725-PDC KRAS spheroid viability;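 note: spheroids exposed to agents for 7 days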
Assay: Anticancer human tumor CN0375-F725-PDC patient-derived colon carcinoma cell line growth inhibition [KRAS2]; active = viability on the fitted dose curve at most 10% of control; inactive = the rest
Settings: second compound 10 µM; first compound 10 µM; spheroids with HUVEC and MSC
Field 'call' accepts active, inactive

### Prompt Field: outcome | Entry: CC(C)NCC(C(=O)N1CCN(c2ncnc3c2C(C)CC3O)CC1)c1ccc(Cl)cc1 (stereo unspecified) + CNCc1ccccc1-c1csc(C(C)Nc2nc(C)nc3cc(OC)c(OC)cc23)c1
### Response active

### Prompt Recorded test outcome, item COc1cc2nccc(Oc3ccc(NC(=O)C4(C(=O)Nc5ccc(F)cc5)CC4)cc3)c2cc1OC + COc1cc2nc(C)nc(NC(C)c3cc(N)cc(C(F)(F)F)c3)c2cc1OC1CCOC1
### Response active

### Prompt # outcome recorded in this test, key = COC(=O)c1ccc2c(C(=Nc3ccc(N(C)C(=O)CN4CCN(C)CC4)cc3)c3ccccc3)c(O)[nH]c2c1 + C=CC(=O)N1CCN(c2nc(=O)n(-c3c(C)ccnc3C(C)C)c3nc(-c4c(O)cccc4F)c(F)cc23)C(C)C1
### Response active

### Prompt Hi team, can someone confirm the assay call for COc1cc(Nc2ncc3c(n2)-c2ccc(Cl)cc2C(c2c(F)cccc2OC)=NC3)ccc1C(=O)O + CC1OCC2(CCN(c3cnc(Sc4ccnc(N)c4Cl)c(N)n3)CC2)C1N ?
### Response inactive

### Prompt Lab log entry: COc1cc2nccc(Oc3ccc(NC(=O)C4(C(=O)Nc5ccc(F)cc5)CC4)cc3)c2cc1OC + CNCc1ccccc1-c1csc(C(C)Nc2nc(C)nc3cc(OC)c(OC)cc23)c1 — outcome as called in the assay?
### Response active

### Prompt # outcome recorded in this test, key = COc1cc2nccc(Oc3ccc(NC(=O)C4(C(=O)Nc5ccc(F)cc5)CC4)cc3)c2cc1OC + CC1OCC2(CCN(c3cnc(Sc4ccnc(N)c4Cl)c(N)n3)CC2)C1N
### Response inactive

### Prompt GET /call?item= COC(=O)c1ccc2c(C(=Nc3ccc(N(C)C(=O)CN4CCN(C)CC4)cc3)c3ccccc3)c(O)[nH]c2c1 + CC1OCC2(CCN(c3cnc(Sc4ccnc(N)c4Cl)c(N)n3)CC2)C1N returns the recorded outcome of this test.
### Response active

### Prompt Called result for CCNC(=O)CC1N=C(c2ccc(Cl)cc2)c2cc(OC)ccc2-n2c(C)nnc21 (stereo unspecified) + CC1OCC2(CCN(c3cnc(Sc4ccnc(N)c4Cl)c(N)n3)CC2)C1N
### Response inactive

### Prompt Could you please tell me the result logged for COc1cc2nccc(Oc3ccc(NC(=O)C4(C(=O)Nc5ccc(F)cc5)CC4)cc3)c2cc1OC + C=CC(=O)N1CCN(c2nc(=O)n(-c3c(C)ccnc3C(C)C)c3nc(-c4c(O)cccc4F)c(F)cc23)C(C)C1 in this assay?
### Response inactive

### Prompt Outcome? CC1OCC2(CCN(c3cnc(Sc4ccnc(N)c4Cl)c(N)n3)CC2)C1N (stereo unspecified) + C=CC(=O)N1CCN(c2nc(=O)n(-c3c(C)ccnc3C(C)C)c3nc(-c4c(O)cccc4F)c(F)cc23)C(C)C1
### Response inactive

### Prompt What is the recorded call for this molecule in the test? COc1cc(Nc2ncc3c(n2)-c2ccc(Cl)cc2C(c2c(F)cccc2OC)=NC3)ccc1C(=O)O + COc1cc2nc(C)nc(NC(C)c3cc(N)cc(C(F)(F)F)c3)c2cc1OC1CCOC1
### Response inactive
